Biological target: CaV1.2 channel (α1C subunit) (Rattus norvegicus)
Construct: gene Cacna1c; native channel in freshly isolated rat tail artery myocytes
Sequence (P22002 whole entry): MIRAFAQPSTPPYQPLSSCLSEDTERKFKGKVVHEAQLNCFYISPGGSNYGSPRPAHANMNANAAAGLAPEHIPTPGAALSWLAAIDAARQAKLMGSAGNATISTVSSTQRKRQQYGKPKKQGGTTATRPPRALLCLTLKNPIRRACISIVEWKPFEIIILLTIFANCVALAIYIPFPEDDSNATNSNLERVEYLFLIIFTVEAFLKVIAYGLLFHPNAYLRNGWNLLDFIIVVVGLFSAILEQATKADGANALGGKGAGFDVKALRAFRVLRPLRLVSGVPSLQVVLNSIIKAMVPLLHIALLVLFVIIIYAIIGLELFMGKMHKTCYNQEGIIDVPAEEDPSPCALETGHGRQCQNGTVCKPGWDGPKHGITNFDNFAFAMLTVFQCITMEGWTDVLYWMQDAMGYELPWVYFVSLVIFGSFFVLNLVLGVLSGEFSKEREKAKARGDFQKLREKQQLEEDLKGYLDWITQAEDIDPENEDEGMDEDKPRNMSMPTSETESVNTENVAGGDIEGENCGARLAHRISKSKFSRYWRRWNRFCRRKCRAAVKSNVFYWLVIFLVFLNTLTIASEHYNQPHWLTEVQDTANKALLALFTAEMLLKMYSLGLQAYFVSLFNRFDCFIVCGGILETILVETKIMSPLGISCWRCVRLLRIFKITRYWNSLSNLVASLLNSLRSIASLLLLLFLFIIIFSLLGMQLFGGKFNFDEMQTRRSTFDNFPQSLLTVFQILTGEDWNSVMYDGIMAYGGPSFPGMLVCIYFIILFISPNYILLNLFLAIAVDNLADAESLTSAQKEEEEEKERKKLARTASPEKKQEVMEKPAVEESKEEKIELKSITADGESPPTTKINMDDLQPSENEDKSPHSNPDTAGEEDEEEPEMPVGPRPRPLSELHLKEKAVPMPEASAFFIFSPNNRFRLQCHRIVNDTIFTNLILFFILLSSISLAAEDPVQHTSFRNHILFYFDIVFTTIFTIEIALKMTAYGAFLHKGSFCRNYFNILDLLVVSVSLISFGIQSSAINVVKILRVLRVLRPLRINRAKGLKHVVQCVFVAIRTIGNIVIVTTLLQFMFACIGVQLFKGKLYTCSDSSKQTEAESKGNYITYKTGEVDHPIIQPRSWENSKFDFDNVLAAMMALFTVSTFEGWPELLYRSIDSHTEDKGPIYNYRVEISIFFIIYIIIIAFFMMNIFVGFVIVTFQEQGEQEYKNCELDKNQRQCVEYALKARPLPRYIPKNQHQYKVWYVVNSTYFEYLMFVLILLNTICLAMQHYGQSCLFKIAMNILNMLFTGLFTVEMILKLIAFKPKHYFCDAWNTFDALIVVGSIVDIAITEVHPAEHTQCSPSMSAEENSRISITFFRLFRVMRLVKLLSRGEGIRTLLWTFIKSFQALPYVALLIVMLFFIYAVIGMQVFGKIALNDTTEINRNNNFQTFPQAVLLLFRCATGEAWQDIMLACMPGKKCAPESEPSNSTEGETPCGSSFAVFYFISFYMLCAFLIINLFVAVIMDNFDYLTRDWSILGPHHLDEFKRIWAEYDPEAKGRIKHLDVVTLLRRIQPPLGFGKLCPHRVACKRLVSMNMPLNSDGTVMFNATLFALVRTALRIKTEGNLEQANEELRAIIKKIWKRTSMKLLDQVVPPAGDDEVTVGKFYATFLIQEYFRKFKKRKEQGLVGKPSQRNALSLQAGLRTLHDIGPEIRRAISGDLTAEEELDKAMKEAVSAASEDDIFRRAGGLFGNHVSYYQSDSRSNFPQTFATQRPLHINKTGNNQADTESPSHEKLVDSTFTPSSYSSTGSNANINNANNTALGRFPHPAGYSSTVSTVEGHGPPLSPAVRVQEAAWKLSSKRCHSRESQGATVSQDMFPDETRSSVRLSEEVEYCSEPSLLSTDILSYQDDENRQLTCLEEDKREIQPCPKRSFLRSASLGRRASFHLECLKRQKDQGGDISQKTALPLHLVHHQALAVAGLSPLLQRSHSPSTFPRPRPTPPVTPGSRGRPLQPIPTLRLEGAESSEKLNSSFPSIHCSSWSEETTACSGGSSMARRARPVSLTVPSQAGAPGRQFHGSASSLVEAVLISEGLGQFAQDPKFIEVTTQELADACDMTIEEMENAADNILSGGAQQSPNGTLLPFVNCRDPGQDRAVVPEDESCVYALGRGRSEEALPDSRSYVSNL
Assay: whole-cell patch-clamp, Ba2+ current (IBa1.[…])
Format: cell-based
pIC50: −log10 of the molar value.
QUANTITY KIND: pIC50

COc1ccc(-c2cc(=O)c3c(OC)c(OC)c(OC)cc3o2)cc1 [scutellarein tetramethyl ether]; ~4.48
